- measurement-target: recombinant human MASP2 active protease (amino acids 297-686, C-terminal His Tag) (human, UniProt O00187 297-686)
- Sequence (O00187 other isoform, or with tags, fused parts or gaps limits assumed): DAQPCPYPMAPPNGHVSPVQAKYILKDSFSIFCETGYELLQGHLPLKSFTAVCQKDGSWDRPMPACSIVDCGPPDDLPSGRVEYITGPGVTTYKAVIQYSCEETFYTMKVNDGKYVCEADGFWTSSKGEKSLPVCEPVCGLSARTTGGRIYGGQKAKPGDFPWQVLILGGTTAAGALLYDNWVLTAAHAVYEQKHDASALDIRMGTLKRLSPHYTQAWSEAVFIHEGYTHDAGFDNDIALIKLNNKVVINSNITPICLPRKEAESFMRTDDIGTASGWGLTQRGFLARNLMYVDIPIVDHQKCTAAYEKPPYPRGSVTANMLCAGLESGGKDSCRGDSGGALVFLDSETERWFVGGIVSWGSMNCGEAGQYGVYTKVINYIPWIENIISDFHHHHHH
- protocol-description: cell-based or functional assay
Bridge positions count the residues as written; N and C are the ends. Square brackets hold non-standard residues; d marks the D form. Ends that are not written are not given here. Oic = O=C(O)[C@@H]1C[C@@H]2CCCC[C@@H]2N1; tBuAla = CC(C)(C)C[C@H](N)C(=O)O; Tranexamic = tranexamic acid; NMeC = CN[C@@H](CS)C(=O)O; Aib = CC(C)(N)C(=O)O; Ahx = NCCCCCC(=O)O
observed-property: human MASP2 IC50 (nM)
Answer format: numeric, nM implied, no suffix.

# count of solved cases: 2
{"binder": "[Tranexamic]ICSRS[tBuAla]PPI[NMeC]IPD-NH2 (disulfide 3-11) [Example 319: (Tranexamic)-IC+SRS-((tBu)A)-PPI-((N-Me)C)+IPD-NH2]", "recorded-value": 18}
{"binder": "[Ahx]ICSRSLP[Oic]ICI-OH (disulfide 3-11; N-terminus assumed; SMILES CC[C@H](C)[C@H](NC(=O)[C@@H]1CSSC[C@H](NC(=O)[C@@H](NC(=O)CCCCCN)[C@@H](C)CC)C(=O)N[C@@H](CO)C(=O)N[C@@H](CCCNC(=N)N)C(=O)N[C@@H](CO)C(=O)N[C@@H](CC(C)C)C(=O)N2CCC[C@H]2C(=O)N2[C@@H](C[C@@H]3CCCC[C@@H]32)C(=O)N[C@@H]([C@@H](C)CC)C(=O)N1)C(=O)O) [Example 383: (Ahx)-IC+SRSLP-(Oic)-IC+I-OH]", "recorded-value": 800}

Exercise: Complete the entry with human MASP2 IC50 for [Aib]ICSRSLPPICIPD-NH2 (disulfide 3-11; N-terminus assumed; SMILES CC[C@H](C)[C@@H]1NC(=O)[C@@H]2CCCN2C(=O)[C@@H]2CCCN2C(=O)[C@H](CC(C)C)NC(=O)[C@H](CO)NC(=O)[C@H](CCCNC(=N)N)NC(=O)[C@H](CO)NC(=O)[C@@H](NC(=O)[C@@H](NC(=O)C(C)(C)N)[C@@H](C)CC)CSSC[C@@H](C(=O)N[C@H](C(=O)N2CCC[C@H]2C(=O)N[C@@H](CC(=O)O)C(N)=O)[C@@H](C)CC)NC1=O) [Example 373: (Aib)-IC+SRSLPPIC+IPD-NH2]
Key: 450

meta.source: patent US20210246166A1
